test system: HAB1; assay: Yeast two hybrid of pBD-PYR1 site saturation mutants with pACT-HAB1 on 10 μM ABA, β-galactosidase staining; type: cell-based, Arabidopsis; set-up: key: x: Mutations in PYR1 that disrupt ABA-induced binding to PYR1 to HAB1; settings: S. cerevisiae Y190, 10 μM ABA; dead = lack of visible staining in comparison to wild type control
MEASURED_METRIC: Mutations in PYR1 that disrupt ABA-induced binding to PYR1 to HAB1

MOLECULE	MEASUREMENT
S85C: PYR1 mutant (protein, UniProt O49686 1-191, looked up, variant S85C) Abscisic acid receptor PYR1: MPSELTPEERSELKNSIAEFHTYQLDPGSCSSLHAQRIHAPPELVWSIVRRFDKPQTYKHFIKSCSVEQNFEMRVGCTRDVIVICGLPANTSTERLDILDDERRVTGFSIIGGEHRLTNYKSVTTVHRFEKENRIWTVVLESYVVDMPEGNSEDDTRMFADTVVKLNLQKLATVAEAMARNSGDGSGSQVT	x
P88E: PYR1 mutant (protein, UniProt O49686 1-191, looked up, variant P88E) Abscisic acid receptor PYR1: MPSELTPEERSELKNSIAEFHTYQLDPGSCSSLHAQRIHAPPELVWSIVRRFDKPQTYKHFIKSCSVEQNFEMRVGCTRDVIVISGLEANTSTERLDILDDERRVTGFSIIGGEHRLTNYKSVTTVHRFEKENRIWTVVLESYVVDMPEGNSEDDTRMFADTVVKLNLQKLATVAEAMARNSGDGSGSQVT	x
A89V: PYR1 mutant (protein, UniProt O49686 1-191, looked up, variant A89V) Abscisic acid receptor PYR1: MPSELTPEERSELKNSIAEFHTYQLDPGSCSSLHAQRIHAPPELVWSIVRRFDKPQTYKHFIKSCSVEQNFEMRVGCTRDVIVISGLPVNTSTERLDILDDERRVTGFSIIGGEHRLTNYKSVTTVHRFEKENRIWTVVLESYVVDMPEGNSEDDTRMFADTVVKLNLQKLATVAEAMARNSGDGSGSQVT	x
